// provenance: patent US12012404B2

Assay: In vitro stability in liver microsomes, cynomolgus monkeys
Format: in vitro ADME
Details: 1 μM, 0.5 mg/mL
The reader will find reported CLint(mic) values listed item by item below.
reportedProperty: CLint(mic)

{"columns": ["compound", "dataValue"],
 "data": [
  ["C=C(F)C(=O)N1CCN(c2nc(OCC3CCCN3C)nc3c2COC(c2c(F)c(N)cc(C)c2C(F)(F)F)C3)CC1CC#N.Cl (single isomer, unassigned) [Compound 8B hydrochloride]", "59.5 µL/min/mg"],
  ["C=C(F)C(=O)N1CCN(c2nc(OC[C@@]34CCCN3C[C@H](F)C4)nc3c2COC(c2c(F)c(N)cc(C)c2C(F)(F)F)C3)C[C@@H]1CC#N (some centres unmarked)", "225 µL/min/mg"]
]}
